system: HDAC; assay: HCT-116 HDAC cellular assay (Fluor de Lys substrate); assay type: cell-based; settings: HCT-116, 8 h, fluorogenic HDAC substrate
RECORDED_ENDPOINT: IC50 (nM)
# unit: nM | format: bare number

# lookup: IC50 of CC(=O)SCC/C=C/[C@@H]1CC(=O)NCc2nc(cs2)C2=N[C@@](C)(CS2)C(=O)N[C@@H](C(C)C)C(=O)O1 [Compound 28] 50
